Assign pIC50 to each entry below.
molecular target: Metabotropic glutamate receptor 2 (Rattus norvegicus); assay: Negative allosteric modulation of rat mGlu2R expressed in HEK293 cells co-expressing Galpha15 assessed as decrease in glutamate-induced calcium mobilization preincubated for 2.3 mins followed by glutamate addition and measured after 1.7 mins by Fluo-4-AM dye based fluorescence assay
Sequence (P31421 whole entry): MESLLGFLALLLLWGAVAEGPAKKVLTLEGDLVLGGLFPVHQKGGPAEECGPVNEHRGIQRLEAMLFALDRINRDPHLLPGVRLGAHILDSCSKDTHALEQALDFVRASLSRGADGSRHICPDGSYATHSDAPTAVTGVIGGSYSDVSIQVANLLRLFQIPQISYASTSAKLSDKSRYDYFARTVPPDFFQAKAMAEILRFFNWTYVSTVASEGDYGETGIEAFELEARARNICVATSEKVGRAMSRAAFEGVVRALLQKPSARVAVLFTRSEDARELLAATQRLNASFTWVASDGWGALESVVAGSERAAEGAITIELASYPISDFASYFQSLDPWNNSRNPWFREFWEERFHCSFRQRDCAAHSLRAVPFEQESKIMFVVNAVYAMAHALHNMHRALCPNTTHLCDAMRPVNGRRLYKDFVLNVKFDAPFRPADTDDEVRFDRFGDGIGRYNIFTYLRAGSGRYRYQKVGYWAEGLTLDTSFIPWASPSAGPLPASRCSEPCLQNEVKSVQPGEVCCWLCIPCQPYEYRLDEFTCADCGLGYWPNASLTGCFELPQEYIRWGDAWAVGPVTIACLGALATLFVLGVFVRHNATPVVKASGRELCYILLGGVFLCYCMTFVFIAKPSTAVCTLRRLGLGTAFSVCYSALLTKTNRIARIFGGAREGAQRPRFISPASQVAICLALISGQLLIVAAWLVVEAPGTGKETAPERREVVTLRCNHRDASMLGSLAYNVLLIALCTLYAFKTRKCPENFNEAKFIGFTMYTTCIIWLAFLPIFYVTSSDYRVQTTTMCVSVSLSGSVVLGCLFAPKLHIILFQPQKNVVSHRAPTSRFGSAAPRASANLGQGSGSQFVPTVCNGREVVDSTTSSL
Units for pIC50: none; it is -log10 of a concentration expressed in mol/L.

Give the measured pIC50 of CN(Cc1cc2nc(C(N)=O)cc(-c3ccc(F)cc3)c2s1)C1COC1 .
5.85

Give the measured pIC50 of NC(=O)c1cc(-c2ccc(F)cc2)n2nc(CCc3ccncc3)cc2n1 .
5.98

Give the measured pIC50 of COc1ccc(-c2cc(C(N)=O)nc3cc(CN4CCOCC4)sc23)c(F)c1 .
5.85

Give the measured pIC50 of NC(=O)c1cc(-c2ccc(F)cc2)c2sc(CN3CCSCC3)cc2n1 .
5.44

Give the measured pIC50 of Cc1ccc(OCc2cc3nc(C(N)=O)cc(-c4ccc(F)cc4)c3s2)c(C)n1 .
6.13

Give the measured pIC50 of Cc1ccc(OCc2cc3nc(C(N)=O)cc(-c4ccc(F)cc4)c3s2)cn1 .
6.17

Give the measured pIC50 of Cc1ncccc1OCc1cc2nc(C(N)=O)cc(-c3ccc(F)cc3)c2s1 .
6.12

Give the measured pIC50 of COc1ccc(-c2cc(C(N)=O)nc3cc(COc4cnc(C)nc4)sc23)c(F)c1 .
6.37

Give the measured pIC50 of Cn1ccc(OCc2cc3nc(C(N)=O)cc(-c4ccc(F)cc4)c3s2)n1 .
5.82

Give the measured pIC50 of COc1ccc(-c2cc(C(N)=O)nc3cc(COc4ccc(F)nc4)sc23)cc1 .
5.59

Give the measured pIC50 of NC(=O)c1cc(-c2ccc(F)cc2)n2nc(COc3ccnc(Br)c3)cc2n1 .
6.65

Give the measured pIC50 of COc1ccc(-c2cc(C(N)=O)nc3cc(COc4ccnc(C)c4)nn23)c(F)c1 .
6.54

Give the measured pIC50 of NC(=O)c1cc(-c2ccc(F)cc2)n2nc(COc3ccnc(C(F)(F)F)c3)cc2n1 .
6.10

Give the measured pIC50 of NC(=O)c1cc(-c2ccc(F)cc2)c2sc(CN3CCOCC3)cc2n1 .
5.41

Give the measured pIC50 of NC(=O)c1cc(-c2ccc(F)cc2)c2sc(CN3CCC(F)(F)CC3)cc2n1 .
5.98

Give the measured pIC50 of NC(=O)c1cc(-c2ccc(F)cc2)c2sc(COc3ccc(Cl)nc3)cc2n1 .
6.06
